Reported Peptide values for the following compounds.
System: porcine trypsin
Construct: purchased
Test: Insulin digestion by trypsin in solution, buffer screening (Table 9)
Type: biochemical
Settings: 15%, 37°C, 18 h
Please respond with just the number, no unit label.

>>> numeric_value("NC=O [Formamide]")
421130
>>> numeric_value("CO")
666807

What measured Peptide goes with OCC(F)(F)F ?
224520

What measured Peptide goes with CC#N ?
779339

What measured Peptide goes with CC(C)O ?
322103

What measured Peptide goes with C[S+](C)[O-] [DMSO, dimethylsulfoxide] ?
481657

----------
System: trypsin
Assay: Insulin digestion in immobilized enzyme reactor, buffer screening (Table 7)
Assay type: biochemical, porcine
Details: 1M; IMER, 70°C, 60 s
Counter-ions that a name gives are not always drawn.
value type: Undigested
Please respond with just the number, no unit label.

Reference set, count: 4
>>> numeric_value("NC(CO)(CO)CO [Tris]")
2177969
>>> numeric_value("[Cl-].[Na+] [NaCl]")
1205692
>>> numeric_value("N=C(N)N [Gdn HC1, guanidine hydrochloride]")
4328875
>>> numeric_value("[Ca+2].[Cl-].[Cl-] [CaCl2, calcium chloride]")
16129

Recorded Undigested for NC(N)=O [Urea] with trypsin, please?
2812910
